B1: TPR t1 (parent)
chain: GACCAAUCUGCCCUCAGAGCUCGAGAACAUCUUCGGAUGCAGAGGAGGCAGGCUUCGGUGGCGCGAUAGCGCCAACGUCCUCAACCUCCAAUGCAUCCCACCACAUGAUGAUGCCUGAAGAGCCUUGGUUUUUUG

variants of: B1; assay: polymerase ribozyme fitness, log enrichment relative to wild type (log ratio); higher = more active; in vitro selection for triplet polymerase activity
quantity-name: polymerase ribozyme fitness (log ratio)

primary_sequence="GACCAAUCAGCCCUCAGAGCUCGAGAACAUCUUCGGAUGCAGACGAGGCAGGCUUCGGUGGCGCGAUAGCGCCAACGUCAUCAACCUCCAAUGCACCCCACCACAUGAUGAUGCCUGAAGAGCCUUGGUUUUUUG [U9A G44C C80A U96C]" recorded_number=-3.87
primary_sequence="GACCAAUCUGCCCUCAGAGCUCGAGAACAUCUUCGAGUGCAGAGGAGGCAGGCUUCGGUGGCGCGAUAGCGCCAACGUCCUCAACCUCCAAUGCAUCCCACCACAUGAUGGUCCCUGAAGCGCCUUGGUUUUUUG [G36A A37G A111G G113C A121C]" recorded_number=-5.88
primary_sequence="GACCAAUCUGUCCUCAGAACUCGAGAACAUCUUCGGAUGCAGAGGAGGCAGGGUACGGUGGCGCGAUAGCGCCAACGUCCUCAACCUCCACUGCAUCCCACCACAUGAUGAUGCCUGAAGAGCCUUGGUUUUUUG [C11U G19A C53G U55A A91C]" recorded_number=-2.36
primary_sequence="GACCAACCUGCCCUCAGAGCUCGAGAACAUCUUUGGAUGCAGAGGAGGCAGGCUUCGGUGUCGCGAUAGCGCCAACGUCCUCAACCUACAAUGCAUCCCACCACAUGAUGAUGCCAGAAGAGCCUUGGUUUUUUG [U7C C34U G61U C88A U116A]" recorded_number=-5.7
primary_sequence="GACCAAUCUGCCCUCAGAGCUCGAGAACAUCUUCGGGUACAGAGGAGGCAGGCUUCGGUGGCGCGAUAGCGCCAACGUCCUCAACGUCCAAUGCAUCCCACCACAUGAUGAUGCCUGAAGAGCCUUGGUUUUUUG [A37G G39A C86G]" recorded_number=-3.13
primary_sequence="GACCAAUCUGCCUUCAGGGCUCGAGAACAUCUUCGGAUGCAGAGGAGGGAGGCUUCGGUGGCGCGAUAGCGCCAACUUCCUCAACCUCCAAUGCAUCCCACCACAUGAUGAUGCCUGAAGAGCCUUGGUUUUUUG [C13U A18G C49G G77U]" recorded_number=-4.43
primary_sequence="GACCAAUCUGCUCUCAGAGCUCGAGAACAUCUUCGGAUGCAGAUGAGGCAGGCUUCGGUGGCGCGAUAGCGGCAACGUCCUCAACCUCCAAUGCAUCCCACCACAUGAUGAUGCCUGAAGAGCCUUACUUUUUUG [C12U G44U C72G G127A G128C]" recorded_number=-4.51
primary_sequence="GACCAAUCUGCUCUCAGAGCUCGAGAACAUCUUCGGAUGCAGAGGAGGCAGGCUUCGAUGGAGCGAUAGCGCCAACGUCCUCAACCUCCAAUGCAUCCCACCACAUGAUGAUGCCUGAAGAGCCUUGGUUUUUUG [C12U G58A C62A]" recorded_number=-1.76
primary_sequence="GACCAAUCUGCCCUCAGAGCUCGAGAACAUCUUCGGAUGCAGAGGAGGCAGGCUUCGGAGGCGCGAUAGCGCCAACGUCCUCGACCUCCAAUGCAUCCCACCACAUGAUGAUGCCUGAAGAGCCUUGGUUUUUUG [U59A A83G]" recorded_number=-0.546
primary_sequence="GACCAAUCUGCCCUCAGAGCUCGAGAACUUCUUCGGAUGCAGAGGAGGCAGGCUUCGGUGGCGCGAUAGCGCCAACGUCCUAAACCUCCAAUGCAUCCCACCACAUGAUGAUGCCUGAAGAGCCUUGGUUUUUUG [A29U C82A]" recorded_number=-2.3
primary_sequence="GACCAAUCUGCCCUCAGAGCUCGAGAACAUCUUCGGAUGCAGAGGAGGCAGGUUUCGGUGGCGCGAUAGCGCCAACGUCCUCAACCUCCAAUGCAUCCUACCACAUGAUGAUGCCUGAAGAGCCUUGGUUUUUUG [C53U C99U]" recorded_number=-2.93
primary_sequence="GACCAAUCUGCCCUCAGAGCUCGAGAACAUCUUCGGAUGCAGAGGAGGCAGGCAUCGGUGGCGCGAUAGCGCCAACGUCCUCAACCUCCAAUGCAUCCCACCACAUGAUGAUGCCUGAAGAGCAUUGGUUUUUUG [U54A C124A]" recorded_number=-0.2
primary_sequence="GACCAAUCUGCCCUCAGAGCUCGAGAACAUCUUCGGAUGCAGAGGAGGCAGGCUUCGGUGGCGCGAUACCGCCAACGUCCUCAACCUCCAAUGCAUCCCACCACAUGAUCAUGCCUGAAGAGCCUUGGUUUUUUG [G69C G110C]" recorded_number=-4.54
primary_sequence="GACCAAUGUGCCCUCAGAACUCGAGAACAUCUUCGGAUGCAGAGGAGGCAGGCUUCGGUGGCGCGAUAGCGCCAAAGUCCUCAACCUCCAAUGCAUCCCACCACAUGAUGAUGCCUGAAGAGCCUUGGUUUUUUG [C8G G19A C76A]" recorded_number=-3.65
primary_sequence="GACCAAUCGGCCCUCAGAGCUCGAGGACAUCUUCGGAUGCAGAGGAGGCAGGCUUCGGUGGCGCGAUAGGGCCAACGUCCUCAUCCUCCAAUGCAUCCCACCACAUGAUGAAGCCUGAAGAGCCUUGGUUUUUUG [U9G A26G C70G A84U U112A]" recorded_number=-4.4
primary_sequence="GACCAAUCUGCCUUCAGAGCUCGAGAACGUCUUCGGAUGCAGAGGAGGCAGACUUCGGUGGCGCGAUAGCGCCAACGUCCUCAACCUCCAAUGCAUCCCACUACAUGAUGAUGCCUGAAGAGCCUUGGUUUUUUG [C13U A29G G52A C102U]" recorded_number=-4.34
primary_sequence="GACCAAUCUGCCCUCAGAGCUCGAGAACAUCUUCGGAUGCAGAGAAGGCAGGCUUCGGUGGCGCGAUAGCGCCAACGUCCUCAAUCUCCAAUGAAUCCCACCACAUGAUGAUGCCUGAAGAGCCUUGGUUUUUUG [G45A C85U C94A]" recorded_number=-2.05
primary_sequence="GACCAAUCUGCCCUCAGAGCUCGAGAACAUCUUCGGAUGCAGAGGAGGCAGGCUUCGGUGGCGCGAUAGCGCCAACGUCCUAAACCUCCAAUGCAUCCCACCACAUGAUGAAGCCUGAAGAGCCUUGGUUAUUUG [C82A U112A U131A]" recorded_number=1.09
primary_sequence="GACCAAUCUGCCCUCAGAGCUCGAGAACAUCUUCGGAUGCAGAGGAGGCAGGCUUCGGUGGCGCGAUAGCGCCAACGUCCUCAACCUCCAAUGUAUCCCACCACAUGAUGAUGCCUGAAGAGCCUUGGAUUUUUG [C94U U129A]" recorded_number=-1.25
primary_sequence="GACCAAUCUGCCCUCAGAGCUCGAGAACAUCUUCGGAUGCUGAGGAGGCAGGCUUCGGUGGCGCGAUAGCGCCAACGUCCUCAACCUCCCAUGCAUCCCACCACAUGAUGAUGCCUGAAGAGCCUUGGUUUUUUG [A41U A90C]" recorded_number=-1.41
primary_sequence="GACCAAUCUGCCCUCAGAGCUCGAGAACAUCUUCGGAUGCGGAGGAGGCAGGCUUCGGUGGCGCGAUAGUGCCAACGCCCUCAACCUCCAAUGCAUCCCACCACAUGAUGAUGCCUGAAGAGCCUUGGUUUUUUG [A41G C70U U78C]" recorded_number=-0.997
primary_sequence="GACCAAUCUGCCCUCAGAGCUCGAGAACUUCUUCGGAUGCAGAGGAGGCAGGCUUCGGUGGCGCGAUAGCGCUAACGUCCUCAACCUCCAAUGCAUCUCACCACAUGAUGCUGCCUGAAGAGCCUUGGUUUUUUG [A29U C73U C98U A111C]" recorded_number=-3.36

Where do the numbers come from? From the RNAGym collection of RNA variant scans (doi:10.1073/pnas.2313332121).
